System: Aurora kinase B (Homo sapiens, UniProt Q96GD4) | Read-out: IC50 | Origin: multiple publications
attribute measured: IC50 (µM)

Example cases with answers are listed next.
NC(=O)c1cccc2c(N[C@H](CN3CCC3)c3ccc(F)cc3)ncnc12 : 0.041
Cc1cc(Nc2nc(CC3(c4nnc(C)o4)CCN(C(=O)c4cccc(Cl)c4F)CC3)ccc2F)n[nH]1 : 0.45
O=C(c1ccnc(F)c1)N1CCN(Cc2cccc(Nc3ncc(Br)s3)n2)CC1 : 2.2
NC(=O)c1cccc2c(N[C@H](CN3CC(F)C3)c3ccc(F)c(C(F)(F)F)c3)ncnc12 : 0.54
Cc1cc(Nc2cccc(CN3CCN(C(=O)c4cccc(C(F)(F)F)c4Cl)CC3)n2)n[nH]1 : 0.32
NC(=O)c1cccc2c(N[C@H](CN3CCC3)c3ccc(OC(F)(F)F)c(Cl)c3)ncnc12 : 0.69
CC1(C)CN(c2ccc(-c3oc(-c4ccc(F)c5[nH]ccc45)nc3C(N)=O)cc2)CCN1 : 0.00936
Cc1c[nH]c2cccc(-c3nc(C(N)=O)c(-c4ccc(N5CCNC(C)(C)C5)cc4)o3)c12 : 0.0142

(1) Cc1cc([C@@H](CN2CCC2)Nc2ncnc3c(C(N)=O)cccc23)ccc1F
(2) C=CC(=O)Nc1ccc(NS(=O)(=O)c2ccc(Nc3ncc4c(n3)N(C)c3ccc(C)cc3C(=O)N4C)cc2)cc1
Among 1 and 2 , which shows a numerically higher IC50 result? Kindly give the label for the entry you pick. 1
(1: 0.12 µM, 2: 0.08 µM)

(a) O=C(c1cccc(F)c1F)N1CCN(Cc2cc(NCC(F)F)cc(Nc3nccs3)n2)CC1
(b) CC(=O)Nc1cccc(C(=O)N2CCN(Cc3cccc(Nc4ncc(Cl)s4)n3)CC2)c1
Of a versus b , which is the one with smaller reported IC50? Refer to your chosen entry by its label in the reply. b

----------
For reference, the following IC50 results for Aurora kinase B (Homo sapiens) were taken from various sources.
attribute measured: IC50 (µM)

// known answers, use as guide
Cc1cccc(NC(=O)Nc2ccc(-c3csc4c(-c5cnn(C[C@H](C)O)c5)cnc(N)c34)cc2)c1 : 0.0112
CC(C)(O)Cn1nnc2cc(Nc3ncc(Cl)c(NC4CCN(c5ccc(C#N)cn5)CC4)n3)ccc21 : 0.045
O=C(c1cccc(Cl)c1F)N1CCN(Cc2cccc(Nc3ncns3)n2)CC1 : 4.8

(I) CC(=O)N1CCN(c2ccc(Nc3nccc(-c4c[nH]c5ccccc45)n3)cc2)CC1
(II) O=C(O)c1cc(CN2CCN(C(=O)c3cccc(Cl)c3F)CC2)nc(Nc2nccs2)c1
// pick larger IC50 from pair: I vs II Indicate your choice by writing its label. II

----------
Aurora kinase B (Homo sapiens, UniProt Q96GD4) IC50, compiled from various sources.

O=C(Nc1ccc2[nH]nc(-c3ccc(OC4CCN(C5COC5)CC4)cc3)c2c1)C(c1ccsc1)N1CCCC1 (stereo not shown) : ≤ 5000 nM
CC[C@@H](NC(=O)c1ccc2[nH]nc(-c3ccc(N4CCOCC4)cc3)c2c1)c1cccs1 : ≤ 5000 nM

Quick one: give measured IC50 for CN1CCN(c2ccc3cc2OCCN[C@@H]2C[C@@H]4C[C@H]2[C@@H](Nc2nc(ncc2F)N3)[C@H]4C(N)=O)CC1 1 to 100 nM

State its IC50: CN1CCN(c2ccc(-c3n[nH]c4cc([C@@H]5C[C@@]56C(=O)Nc5ccc(N)cc56)ccc34)cc2)CC1 (relative stereo) 100 to 1000 nM
